# Tgt: NHE3 (Homo sapiens, UniProt P48764)
# Construct: expressed in transfected cells
# Sequence (P48764 26-834): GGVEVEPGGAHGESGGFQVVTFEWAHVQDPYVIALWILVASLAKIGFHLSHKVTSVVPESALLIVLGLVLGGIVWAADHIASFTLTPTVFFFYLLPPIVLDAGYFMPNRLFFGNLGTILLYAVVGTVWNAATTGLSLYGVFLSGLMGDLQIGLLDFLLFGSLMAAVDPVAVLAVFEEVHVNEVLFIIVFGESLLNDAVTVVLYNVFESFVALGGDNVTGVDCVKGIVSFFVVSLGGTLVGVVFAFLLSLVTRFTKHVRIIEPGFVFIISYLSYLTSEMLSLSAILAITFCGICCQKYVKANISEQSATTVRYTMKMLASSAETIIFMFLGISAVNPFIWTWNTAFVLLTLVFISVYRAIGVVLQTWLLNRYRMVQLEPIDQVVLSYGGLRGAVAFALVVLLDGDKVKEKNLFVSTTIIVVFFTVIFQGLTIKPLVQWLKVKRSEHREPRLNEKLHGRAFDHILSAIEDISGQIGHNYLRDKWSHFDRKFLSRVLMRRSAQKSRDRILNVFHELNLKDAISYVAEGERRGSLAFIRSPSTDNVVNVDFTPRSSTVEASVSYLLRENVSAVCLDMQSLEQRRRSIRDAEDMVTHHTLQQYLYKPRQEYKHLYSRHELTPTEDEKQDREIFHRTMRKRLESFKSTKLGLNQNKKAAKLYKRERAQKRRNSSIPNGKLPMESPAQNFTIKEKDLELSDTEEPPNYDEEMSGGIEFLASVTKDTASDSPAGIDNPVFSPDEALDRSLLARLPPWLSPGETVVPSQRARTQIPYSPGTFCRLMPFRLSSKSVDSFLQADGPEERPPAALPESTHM
# Sequence (Q99653 2-195 partner limits assumed): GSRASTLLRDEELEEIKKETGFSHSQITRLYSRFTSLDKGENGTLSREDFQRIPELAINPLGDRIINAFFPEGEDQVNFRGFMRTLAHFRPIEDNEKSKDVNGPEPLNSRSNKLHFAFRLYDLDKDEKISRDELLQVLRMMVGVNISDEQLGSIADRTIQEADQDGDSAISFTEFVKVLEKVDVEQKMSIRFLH
# Experiment description: Cell-based assay of NHE-3 activity (pre-incubation inhibition), human
# Condition description: human Preincubation, 0-30 μM test compound
Counter-ions that a name gives are not always drawn.
Measured metric: pIC50

Here's what some known entries look like.
Compound	Tgt	Measured metric	Result
COc1cc(Cl)cc2c1C[C@H](N1CCC[C@@H](N)C1)[C@H]2Oc1ccc(S(=O)(=O)NCCOCCOCCNC(=O)NCCCCNC(=O)NCCOCCOCCNS(=O)(=O)c2ccc(O[C@H]3c4cc(Cl)cc(OC)c4C[C@@H]3N3CCC[C@@H](N)C3)c(C)c2)cc1C	NHE3 (Homo sapiens, UniProt P48764)	pIC50	C (NHE3 pIC50 > 7)
Cc1cc(S(=O)(=O)NCCOCCOCCNC(=O)NCCCCNC(=O)NCCOCCOCCNS(=O)(=O)c2ccc(O[C@H]3c4cc(Cl)cc(Cl)c4C[C@@H]3N3CCC[C@@H](N)C3)c(C)c2)ccc1O[C@H]1c2cc(Cl)cc(Cl)c2C[C@@H]1N1CCC[C@@H](N)C1	NHE3 (Homo sapiens, UniProt P48764)	pIC50	C (NHE3 pIC50 > 7)
Cc1cc(S(=O)(=O)NCCOCCOCCNC(=O)NCCCCNC(=O)NCCOCCOCCNS(=O)(=O)c2cc(C)c(O[C@H]3c4cc(Cl)cc(Cl)c4C[C@@H]3N(C)C)cc2C)c(C)cc1O[C@H]1c2cc(Cl)cc(Cl)c2C[C@@H]1N(C)C	NHE3 (Homo sapiens, UniProt P48764)	pIC50	C (NHE3 pIC50 > 7)
Cc1cc(Cl)cc2c1C[C@H](N1CCC[C@@H](N(C)C)C1)[C@H]2Oc1ccc(S(=O)(=O)NCCOCCOCCNC(=O)NCCCCNC(=O)NCCOCCOCCNS(=O)(=O)c2ccc(O[C@H]3c4cc(Cl)cc(C)c4C[C@@H]3N3CCC[C@@H](N(C)C)C3)c(F)c2)cc1F	NHE3 (Homo sapiens, UniProt P48764)	pIC50	C (NHE3 pIC50 > 7)
N#Cc1cc(Cl)cc2c1C[C@H](N1CCNCC1)[C@H]2Oc1ccc(S(=O)(=O)NCCOCCOCCNC(=O)NCCCCNC(=O)NCCOCCOCCNS(=O)(=O)c2ccc(O[C@H]3c4cc(Cl)cc(C#N)c4C[C@@H]3N3CCNCC3)cc2)cc1	NHE3 (Homo sapiens, UniProt P48764)	pIC50	C (NHE3 pIC50 > 7)
N#Cc1cc(Cl)cc2c1C[C@H](N1CCNCC1)[C@H]2Oc1ccc(S(=O)(=O)N[C@@H]2CCN(CCOCCNC(=O)NCCCCNC(=O)NCCOCCN3CC[C@@H](NS(=O)(=O)c4ccc(O[C@H]5c6cc(Cl)cc(C#N)c6C[C@@H]5N5CCNCC5)cc4)C3)C2)cc1	NHE3 (Homo sapiens, UniProt P48764)	pIC50	C (NHE3 pIC50 > 7)

I'd like to know its pIC50. The compound in question is NC1CCCN(C2Cc3c(Cl)cc(Cl)cc3C2Oc2ccc(S(=O)(=O)NCCOCCOCCn3cc(CNC(=O)C(O)C(O)C(O)C(O)C(=O)NCc4cn(CCOCCOCCNS(=O)(=O)c5ccc(OC6c7cc(Cl)cc(Cl)c7CC6N6CCCC(N)C6)cc5)nn4)nn3)cc2)C1 (centres unmarked)
C (NHE3 pIC50 > 7)

Consider next the compound "Cc1cc(S(=O)(=O)N[C@H]2CCN(CCOCCNC(=O)NCCCCNC(=O)NCCOCCN3CC[C@H](NS(=O)(=O)c4ccc(O[C@H]5c6cc(Cl)cc(C#N)c6C[C@@H]5N(C)C)c(C)c4)C3=O)C2=O)ccc1O[C@H]1c2cc(Cl)cc(C#N)c2C[C@@H]1N(C)C" in the same way.
C (NHE3 pIC50 > 7)

And what about the compound "Cc1cc(S(=O)(=O)NCCOCCOCCNC(=O)NCCCCNC(=O)NCCOCCOCCNS(=O)(=O)c2cc(C)c(O[C@H]3c4cc(Cl)cc(Cl)c4C[C@@H]3N3CCC[C@@H](N)C3)cc2C)c(C)cc1O[C@H]1c2cc(Cl)cc(Cl)c2C[C@@H]1N1CCC[C@@H](N)C1" ?
C (NHE3 pIC50 > 7)

Cc1cc(S(=O)(=O)NCCOCCOCCNC(=O)NCCCCNC(=O)NCCOCCOCCNS(=O)(=O)c2cc(C)c(O[C@H]3c4cc(Cl)cc(Cl)c4C[C@@H]3N3CCC[C@@H](N)C3)c(F)c2)cc(F)c1O[C@H]1c2cc(Cl)cc(Cl)c2C[C@@H]1N1CCC[C@@H](N)C1 [Example 83, hydrochloride] ?
C (NHE3 pIC50 > 7)

Also check "Cc1cc(O[C@H]2c3cc(Cl)cc(Cl)c3C[C@@H]2N2CCC[C@@H](N)C2)ccc1S(=O)(=O)NCCOCCOCCNC(=O)NCCCCNC(=O)NCCOCCOCCNS(=O)(=O)c1ccc(O[C@H]2c3cc(Cl)cc(Cl)c3C[C@@H]2N2CCC[C@@H](N)C2)cc1C"
C (NHE3 pIC50 > 7)

Query CC(C)[C@@H](COCCOCCNC(=O)NCCCCNC(=O)NCCOCCOC[C@@H](NS(=O)(=O)c1ccc(O[C@H]2c3cc(Cl)cc(Cl)c3C[C@@H]2N2CCC[C@@H](N)C2)cc1)C(C)C)NS(=O)(=O)c1ccc(O[C@H]2c3cc(Cl)cc(Cl)c3C[C@@H]2N2CCC[C@@H](N)C2)cc1 [Example 98, dihydrochloride] next
C (NHE3 pIC50 > 7)

One more compound: "Cc1cc(S(=O)(=O)NCCOCCOCCNC(=O)NCCCCNC(=O)NCCOCCOCCNS(=O)(=O)c2ccc(O[C@H]3c4cc(Cl)cc(C#N)c4C[C@@H]3N3CCC[C@@H](N(C)C)C3)c(C)c2)ccc1O[C@H]1c2cc(Cl)cc(C#N)c2C[C@@H]1N1CCC[C@@H](N(C)C)C1"
C (NHE3 pIC50 > 7)

What about "C[C@H]1CN([C@H]2Cc3c(C#N)cc(Cl)cc3[C@@H]2Oc2ccc(S(=O)(=O)N[C@@H]3CCN(CCOCCNC(=O)NCCCCNC(=O)NCCOCCN4CC[C@@H](NS(=O)(=O)c5ccc(O[C@H]6c7cc(Cl)cc(C#N)c7C[C@@H]6N6CCN[C@@H](C)C6)cc5)C4)C3)cc2)CCN1" ?
C (NHE3 pIC50 > 7)

Hello, the source for this data is patent US11242337B2, in case you need it.
